# System tested: androgen receptor (Homo sapiens, UniProt P10275)
# Test details: AR Antagonist Cell Assay (MMTV-luciferase reporter, DHT-induced)
# Condition context: MDA-MB453-MMTV clone 54-19 cells, 100 pM DHT, 17 hr
Value kind: IC50 (µM)

A: CC(C)(Cc1ccc(F)cc1)NS(=O)(=O)c1ccc2[nH]c(=O)cc(C(F)(F)F)c2c1
B: O=c1cc(C(F)(F)F)c2cc(S(=O)(=O)NCCC3=CCCCC3)ccc2[nH]1
C: CN(C1CCCCC1)S(=O)(=O)c1ccc2[nH]c(=O)cc(C(F)(F)F)c2c1
D: CCOc1ccccc1CNS(=O)(=O)c1ccc2[nH]c(=O)cc(C(F)(F)F)c2c1
(Q) Please put the entries in order of rising IC50. Use the labels to give the ranking in the order requested.
(A) B, D, A, C

P: CC(C)NS(=O)(=O)c1ccc2[nH]c(=O)cc(C(F)(F)F)c2c1
Q: O=c1cc(C(F)(F)F)c2cc(S(=O)(=O)NC3CCCC3)ccc2[nH]1
(Q) Choose between P and Q : whose measured IC50 value is numerically larger? Pick one and reply with its label.
(A) P
(P: 2.34 µM, Q: 0.82 µM)

a: CCc1cccc(NS(=O)(=O)c2ccc3c(c2)c(C(F)(F)F)cc(=O)n3C)c1
b: Cc1cccc(NS(=O)(=O)c2ccc3[nH]c(=O)cc(C(F)(F)F)c3c2)c1
(Q) Form: Entry with minimum IC50 (choose one): a / b Pick one and reply with its label.
(A) b

1: Cn1c(=O)cc(C(F)(F)F)c2cc(S(=O)(=O)Nc3cccc(OC(F)(F)F)c3)ccc21
2: O=c1cc(C(F)(F)F)c2cc(S(=O)(=O)NCCCO)ccc2[nH]1
(Q) Choose between 1 and 2 : whose measured IC50 value is numerically larger? Pick one and reply with its label.
(A) 2
(2: 6.73 µM, 1: 3.86 µM)

---

# System tested: UniProtKB P10275
# Test details: AR Antagonist Cell Assay (MMTV-luciferase reporter, DHT-induced)
# Condition context: MDA-MB453-MMTV clone 54-19 cells, 100 pM DHT, 17 hr
pIC50: −log10 of the molar value.
Value kind: pIC50

Previously resolved entries follow.
CC(C)(C)CCNS(=O)(=O)c1ccc2[nH]c(=O)cc(C(F)(F)F)c2c1    5.99
C#Cc1ccc(NS(=O)(=O)c2ccc3[nH]c(=O)cc(C(F)(F)F)c3c2)cc1    6.35
Cc1ccc(NS(=O)(=O)c2ccc3[nH]c(=O)cc(C(F)(F)F)c3c2)cc1    5.94
COc1cc(NS(=O)(=O)c2ccc3[nH]c(=O)cc(C(F)(F)F)c3c2)cc(OC)c1    6.70
O=c1cc(C(F)(F)F)c2cc(S(=O)(=O)NCc3cc(C(F)(F)F)ccc3F)ccc2[nH]1    5.18
O=c1cc(C(F)(F)F)c2cc(S(=O)(=O)NCc3c(F)cccc3Cl)ccc2[nH]1    5.62

A: C#Cc1ccc(NS(=O)(=O)c2ccc3c(c2)c(C(F)(F)F)cc(=O)n3C)cc1
B: O=c1cc(C(F)(F)F)c2cc(S(=O)(=O)NCC3CCCCC3)ccc2[nH]1
C: O=c1cc(C(F)(F)F)c2cc(S(=O)(=O)NC3CCCCCC3)ccc2[nH]1
(Q) Arrange these compounds by their pIC50, starting with the largest number. Use the labels to give the ranking in the order requested.
(A) A, C, B
(A: 5.93, C: 5.53, B: 5.07)

---

# System tested: androgen receptor (Homo sapiens, UniProt P10275)
# Sequence (P10275 1-920 Q868H): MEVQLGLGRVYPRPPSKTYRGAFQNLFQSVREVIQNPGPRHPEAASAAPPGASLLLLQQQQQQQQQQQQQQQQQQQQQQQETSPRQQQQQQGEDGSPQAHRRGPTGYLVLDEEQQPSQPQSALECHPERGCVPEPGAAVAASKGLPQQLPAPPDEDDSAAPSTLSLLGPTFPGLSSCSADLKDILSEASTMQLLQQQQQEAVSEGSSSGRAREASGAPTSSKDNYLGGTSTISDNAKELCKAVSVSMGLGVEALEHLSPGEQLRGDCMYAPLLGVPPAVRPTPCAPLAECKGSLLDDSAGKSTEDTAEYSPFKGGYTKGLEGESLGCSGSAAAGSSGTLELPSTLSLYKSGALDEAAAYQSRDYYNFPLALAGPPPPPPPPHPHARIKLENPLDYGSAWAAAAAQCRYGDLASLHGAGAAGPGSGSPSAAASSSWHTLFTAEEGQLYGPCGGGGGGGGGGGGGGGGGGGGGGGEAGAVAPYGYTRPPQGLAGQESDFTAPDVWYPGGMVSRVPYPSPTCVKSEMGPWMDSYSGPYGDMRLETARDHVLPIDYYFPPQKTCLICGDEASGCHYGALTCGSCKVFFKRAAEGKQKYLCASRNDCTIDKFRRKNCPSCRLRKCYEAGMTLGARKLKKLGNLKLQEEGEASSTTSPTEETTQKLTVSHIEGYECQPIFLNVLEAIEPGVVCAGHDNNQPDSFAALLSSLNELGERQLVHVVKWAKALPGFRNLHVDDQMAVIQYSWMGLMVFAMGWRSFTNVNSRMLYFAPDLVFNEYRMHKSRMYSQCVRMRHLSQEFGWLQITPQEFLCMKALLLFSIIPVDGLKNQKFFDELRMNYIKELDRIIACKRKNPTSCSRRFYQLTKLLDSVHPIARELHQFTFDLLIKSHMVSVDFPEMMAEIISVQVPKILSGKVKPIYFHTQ
# Test details: AR Antagonist Cell Assay (MMTV-luciferase reporter, DHT-induced)
# Condition context: MDA-MB453-MMTV clone 54-19 cells, 100 pM DHT, 17 hr
Value kind: IC50 (µM)

CSc1ccccc1CNS(=O)(=O)c1ccc2[nH]c(=O)cc(C(F)(F)F)c2c1    0.84
CC(C)N(C)S(=O)(=O)c1ccc2[nH]c(=O)cc(C(F)(F)F)c2c1    0.55
Cn1c(=O)cc(C(F)(F)F)c2cc(S(=O)(=O)NCCc3cccs3)ccc21    5.68
O=c1cc(C(F)(F)F)c2cc(S(=O)(=O)Nc3ccccc3Sc3ccccc3)ccc2[nH]1    8.13

I: Cn1c(=O)cc(C(F)(F)F)c2cc(S(=O)(=O)Nc3ccc4c(c3)CCC4)ccc21
II: O=c1cc(C(F)(F)F)c2cc(S(=O)(=O)Nc3cccc(OC(F)F)c3)ccc2[nH]1
(Q) Choose between I and II : whose measured IC50 value is numerically larger? Pick one and reply with its label.
(A) I

---

# System tested: androgen receptor (Homo sapiens, UniProt P10275)
# Test details: AR Antagonist Cell Assay (MMTV-luciferase reporter, DHT-induced)
# Condition context: MDA-MB453-MMTV clone 54-19 cells, 100 pM DHT, 17 hr
pIC50: −log10 of the molar value.
Value kind: pIC50

Previously resolved entries follow.
O=c1cc(C(F)(F)F)c2cc(S(=O)(=O)N[C@H]3CCCC[C@H]3OCc3ccccc3)ccc2[nH]1    < 5.00
COc1ccccc1NS(=O)(=O)c1ccc2[nH]c(=O)cc(C(F)(F)F)c2c1    < 5.00
CCc1cccc(NS(=O)(=O)c2ccc3[nH]c(=O)cc(C(F)(F)F)c3c2)c1    6.89
O=c1cc(C(F)(F)F)c2cc(S(=O)(=O)NCc3cccnc3)ccc2o1    < 5.00

(Q) Bench note: what pIC50 did CC(C)(NS(=O)(=O)c1ccc2oc(=O)cc(C(F)(F)F)c2c1)c1ccccc1 show?
(A) < 5.00

---

# System tested: androgen receptor (Homo sapiens, UniProt P10275)
# Test details: AR Antagonist Cell Assay (MMTV-luciferase reporter, DHT-induced)
# Condition context: MDA-MB453-MMTV clone 54-19 cells, 100 pM DHT, 17 hr
pIC50: −log10 of the molar value.
A collection of compounds and their measured pIC50

Previously resolved entries follow.
Cn1c(=O)cc(C(F)(F)F)c2cc(S(=O)(=O)Nc3cccc(Cc4ccccc4)c3)ccc21 [Example 43]    < 5.00
COc1cc(CNS(=O)(=O)c2ccc3[nH]c(=O)cc(C(F)(F)F)c3c2)cc(OC)c1 [Example 149]    < 5.00

Please examine the following record next.
(Q) Bench note: what pIC50 did COCCN(CCOC)S(=O)(=O)c1ccc2[nH]c(=O)cc(C(F)(F)F)c2c1 [Example 80] show?
(A) < 5.00

---

A collection of compounds and their measured IC50
# System tested: UniProtKB P10275
# Test details: AR Antagonist Cell Assay (MMTV-luciferase reporter, DHT-induced)
# Condition context: MDA-MB453-MMTV clone 54-19 cells, 100 pM DHT, 17 hr

Previously resolved entries follow.
Cn1c(=O)cc(C(F)(F)F)c2cc(S(=O)(=O)N(CCO)Cc3ccccc3)ccc21    > 10 µM
O=c1cc(C(F)(F)F)c2cc(S(=O)(=O)Nc3ccccc3Br)ccc2[nH]1    > 10 µM
O=c1cc(C(F)(F)F)c2cc(S(=O)(=O)NCc3cc(Cl)ccc3F)ccc2[nH]1    6.54 µM
Cn1c(=O)cc(C(F)(F)F)c2cc(S(=O)(=O)NCCSCc3c(F)cccc3Cl)ccc21    > 10 µM
N#CCc1ccc(NS(=O)(=O)c2ccc3[nH]c(=O)cc(C(F)(F)F)c3c2)cc1    0.84 µM

(Q) Bench note: what IC50 did O=c1cc(C(F)(F)F)c2cc(S(=O)(=O)Nc3ccc(F)cc3F)ccc2[nH]1 show?
(A) > 10 µM
